// data source = the supplement of paper PMC10065799

biological target: EPHB2 (UniProt P29323); experiment: phosphorylation enrichment, bacterial display (enrichment ratio); higher = better substrate or ligand; peptides without Tyr show the background;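 also: 11-residue human phosphosite peptides and single-mutation variants displayed on the E. coli surface, counted by deep sequencing, each peptide's frequency after selection divided by its frequency in the unselected input library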;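 also: frequency after pTyr selection over input frequency; kinase dosed for 20-30% of maximal phosphorylation in three min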
Sequence (P29323 whole entry, looked up): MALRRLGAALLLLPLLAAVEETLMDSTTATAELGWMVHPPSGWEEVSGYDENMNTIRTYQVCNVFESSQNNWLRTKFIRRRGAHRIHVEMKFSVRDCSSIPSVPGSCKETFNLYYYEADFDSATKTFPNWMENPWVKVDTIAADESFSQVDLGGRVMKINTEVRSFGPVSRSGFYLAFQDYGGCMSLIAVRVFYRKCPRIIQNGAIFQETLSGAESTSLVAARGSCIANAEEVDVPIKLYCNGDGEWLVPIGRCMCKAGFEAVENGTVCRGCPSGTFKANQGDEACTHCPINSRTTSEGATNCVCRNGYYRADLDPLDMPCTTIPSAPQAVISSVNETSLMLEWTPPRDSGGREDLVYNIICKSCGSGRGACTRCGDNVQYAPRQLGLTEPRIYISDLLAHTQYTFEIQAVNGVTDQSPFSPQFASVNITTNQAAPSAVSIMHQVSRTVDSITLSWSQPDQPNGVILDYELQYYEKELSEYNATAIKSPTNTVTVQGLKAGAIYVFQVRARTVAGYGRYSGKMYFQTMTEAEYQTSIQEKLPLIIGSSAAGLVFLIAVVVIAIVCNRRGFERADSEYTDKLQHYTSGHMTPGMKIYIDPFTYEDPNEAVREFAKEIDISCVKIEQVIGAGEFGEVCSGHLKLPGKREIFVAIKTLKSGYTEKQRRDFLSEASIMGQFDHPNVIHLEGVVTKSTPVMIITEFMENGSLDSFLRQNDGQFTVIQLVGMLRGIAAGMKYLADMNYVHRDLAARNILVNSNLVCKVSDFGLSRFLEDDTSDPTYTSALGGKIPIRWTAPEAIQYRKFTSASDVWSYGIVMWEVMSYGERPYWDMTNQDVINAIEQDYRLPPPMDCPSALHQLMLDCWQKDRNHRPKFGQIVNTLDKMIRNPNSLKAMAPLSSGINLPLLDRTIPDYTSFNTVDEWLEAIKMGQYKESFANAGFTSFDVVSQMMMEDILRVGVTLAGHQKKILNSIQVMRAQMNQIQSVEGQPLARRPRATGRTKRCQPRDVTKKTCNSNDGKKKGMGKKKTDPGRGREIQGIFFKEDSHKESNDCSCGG
Values of phosphorylation enrichment greater than or equal to 0.5 map to T; values below map to F.

Example cases with answers are listed next.
{"input-sequence": "MFRVQYNSSVD [LRFN1_Y458_Q455R_YF]", "group": "F"}
{"input-sequence": "LKDEDYLKDIV [HAUS3_Y582]", "group": "T"}
{"input-sequence": "YQQLFYLLQIN [IQGAP2_Y890_T894I]", "group": "T"}
{"input-sequence": "SISFDYCRVPM [BST2_Y8_T4I_YF]", "group": "T"}
{"input-sequence": "SIKDKYVMALY [KCNH2_Y611_T613M]", "group": "F"}
{"input-sequence": "EDASEYFENFI [PARP4_Y214_F215Y_YF]", "group": "T"}
{"input-sequence": "NAGAFYALSTL [FLVCR2_Y325]", "group": "T"}
{"input-sequence": "ASGKFYAMKIL [AKT3_Y174_YF]", "group": "T"}
{"input-sequence": "QQMGTYGVRAA [ICAM2_Y260_R256Q]", "group": "F"}
{"input-sequence": "QISSNYDDAMQ [ZNF281_Y531]", "group": "T"}

Exercise: hey, is phosphorylation enrichment for this one >= 0.5? ENPLDYGSAWA [AR_Y395]
Key: T

Exercise: Quick check, phosphorylation enrichment >= 0.5? STEAIYWRYSK [SH3PXD2B_Y42_R43W]
Key: T
